test.system: recombinant human ERK5 catalytic domain (Homo sapiens, UniProt Q13164)
Construct: Recombinant human ERK5 catalytic domain radiometric assays; purchased Reaction Biology, Corp (Malvern, Pa.), which ran the assay as a service
Sequence (Q13164 55-347 limits assumed): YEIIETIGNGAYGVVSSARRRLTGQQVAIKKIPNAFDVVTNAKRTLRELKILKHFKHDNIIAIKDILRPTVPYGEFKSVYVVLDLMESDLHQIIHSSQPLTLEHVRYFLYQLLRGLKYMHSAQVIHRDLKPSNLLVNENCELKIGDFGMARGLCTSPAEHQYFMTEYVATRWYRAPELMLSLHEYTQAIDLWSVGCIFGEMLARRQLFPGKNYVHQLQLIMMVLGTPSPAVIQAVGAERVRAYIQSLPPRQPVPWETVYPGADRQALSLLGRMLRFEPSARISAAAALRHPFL
assay.method.text: Recombinant human ERK5 radiometric (HotSpot) assay
Type: biochemical
run.conditions: 10 μM ATP, 20 μM myelin basic protein substrate; read-out: rhERK5 IC50
pIC50: −log10 of the molar value.
Answer each item with its documented pIC50.

{"columns": ["compound", "value.observed"],
 "data": [
  ["CCOc1cc(C(=O)N2CCN(C3CCN(C)CC3)CC2)ccc1Nc1cc2c(cn1)N(C)C(=O)c1cccc(F)c1O2 [Compound T103]", "6.70 to 7.30"],
  ["C[C@H]1C[C@H](Nc2cc3c(cn2)N(C)C(=O)c2ccccc2N3C)CC[C@H]1O [Compound T137]", "6.70 to 7.30"],
  ["CCOc1cc(C(=O)N2CC[C@@H](N3CCNCC3)C2)ccc1Nc1cc2c(cn1)N(C)C(=O)c1ccccc1N2C [Compound T58]", "7.30 to 7.70"],
  ["CCOc1cc(C(=O)N2CC[C@@H](NCCF)C2)ccc1Nc1cc2c(cn1)N(C)C(=O)c1ccccc1N2C [Compound T9]", "7.30 to 7.70"],
  ["CCOc1cc(C(=O)N2CC[C@@H](C#N)C2)ccc1Nc1cc2c(cn1)N(C)C(=O)c1ccccc1N2C [Compound T21]", "> 7.70"],
  ["CCCOc1cc(C(=O)N2CCCNCC2)ccc1Nc1cc2c(cn1)N(C)C(=O)c1ccccc1N2C [Compound T40]", "7.30 to 7.70"],
  ["CCOc1cc(C(=O)N2CCN(C3CCN(C)CC3)CC2)ccc1Nc1cc2c(cn1)N(C)C(=O)c1c(F)cccc1N2C [Compound T124]", "7.30 to 7.70"],
  ["CCOc1cc(C(=O)N2CCC[C@H](OC(=O)CN(C)C)C2)ccc1Nc1cc2c(cn1)N(C)C(=O)c1ccccc1N2C [Compound T44]", "7.30 to 7.70"]
]}

Please find the next compound below.
query: Requested field: pIC50. Item: CCOc1cc(C(=O)N2CCN(c3cccnc3)CC2)ccc1Nc1cc2c(cn1)N(C)C(=O)c1occc1N2C [Compound T56]
result: > 7.70

* * *

Answer each item with its documented pIC50.
test.system: ERK5 (Homo sapiens, UniProt Q13164)
Construct: screened for activity against several kinases in Jurkat cells; endogenous in cells; host or cells: Jurkat cell lysate
Sequence (Q13164 whole entry): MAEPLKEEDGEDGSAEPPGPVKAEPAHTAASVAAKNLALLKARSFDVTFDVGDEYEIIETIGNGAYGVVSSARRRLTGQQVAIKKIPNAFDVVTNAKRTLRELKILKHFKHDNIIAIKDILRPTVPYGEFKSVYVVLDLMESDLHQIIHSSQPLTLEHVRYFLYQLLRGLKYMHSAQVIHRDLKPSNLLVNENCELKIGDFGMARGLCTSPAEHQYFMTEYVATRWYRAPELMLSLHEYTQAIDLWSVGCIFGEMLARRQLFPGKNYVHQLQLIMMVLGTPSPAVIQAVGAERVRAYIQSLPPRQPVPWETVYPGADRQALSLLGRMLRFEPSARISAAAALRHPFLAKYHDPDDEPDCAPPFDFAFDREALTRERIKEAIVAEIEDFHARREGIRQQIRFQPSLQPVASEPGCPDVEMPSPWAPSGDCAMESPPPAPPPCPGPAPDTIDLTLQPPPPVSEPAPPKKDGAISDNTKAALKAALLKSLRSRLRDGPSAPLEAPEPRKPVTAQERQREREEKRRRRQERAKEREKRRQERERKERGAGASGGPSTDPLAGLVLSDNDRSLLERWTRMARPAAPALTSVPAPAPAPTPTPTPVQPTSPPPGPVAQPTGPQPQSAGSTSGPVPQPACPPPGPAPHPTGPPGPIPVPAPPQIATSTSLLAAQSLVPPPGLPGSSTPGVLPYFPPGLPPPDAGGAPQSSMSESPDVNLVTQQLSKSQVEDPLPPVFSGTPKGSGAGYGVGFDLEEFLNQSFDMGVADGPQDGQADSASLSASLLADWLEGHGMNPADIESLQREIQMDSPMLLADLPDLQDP
assay.method.text: Probe-based (AX9989 acyl phosphate ATP probe) kinase profiling in Jurkat lysate: ERK5
Assay type: binding
run.conditions: calculated from percent inhibition and screening concentration; Jurkat lysate, AX9989 probe
pIC50: −log10 of the molar value.

Consider the reported pIC50 for these molecules:
{"columns": ["query.smiles", "pIC50"],
 "data": [
  ["CN1CCN([C@@H]2CCN(C(=O)c3ccc(Nc4cc5c(cn4)N(C)C(=O)c4ccccc4N5C)c(OC(F)F)c3)C2)CC1", "≥ 7.30"],
  ["CCOc1cc(C(=O)N2CCN(C(C)=O)CC2)ccc1Nc1cc2c(cn1)N(C)C(=O)c1ccccc1N2C", "≥ 7.30"],
  ["CN1CCN([C@@H]2CCN(C(=O)c3ccc(Nc4cc5c(cn4)N(C)C(=O)c4ccccc4N5C)c(F)c3)C2)CC1", "≥ 7.30"],
  ["CN1C(=O)c2ccccc2N(C)c2cc(N[C@H]3C[C@H](O)C3)ncc21", "< 6.30"]
]}

Respectfully, I request pIC50 for each entry included below.
1. CCOc1cc(C(=O)N2CCC(N3CC[C@H](O)C3)CC2)ccc1Nc1cc2c(cn1)N(C)C(=O)c1ccccc1N2C
2. CCOc1cc(C(=O)N2CCN(C3CCN(C)CC3)CC2)ccc1Nc1cc2c(cn1)N(C)C(=N)c1ccccc1N2C

result:
1: ≥ 7.30; 2: < 6.30

* * *

test.system: ERK5 (Homo sapiens)
Construct: screened for activity against several kinases in Jurkat cells; endogenous in cells; host or cells: Jurkat cell lysate
assay.method.text: Probe-based (AX9989 acyl phosphate ATP probe) kinase profiling in Jurkat lysate: ERK5
Format: binding
run.conditions: calculated from percent inhibition and screening concentration; Jurkat lysate, AX9989 probe
measure.name: IC50

Consider the reported IC50 for these molecules:
{"columns": ["query.smiles", "value.observed"],
 "data": [
  ["CN1C(=O)c2c(F)cccc2Oc2cc(N[C@H]3CC[C@H](O)CC3)ncc21", "101 to 500 nM"],
  ["CCOc1cc(C(=O)N2CCC(N3CCCN(C)CC3)CC2)ccc1Nc1cc2c(cn1)N(C)C(=O)c1ccccc1N2C", "≤ 50 nM"],
  ["CCOc1cc(C(=O)N2C[C@H]3CCN[C@H]3C2)ccc1Nc1cc2c(cn1)N(C)C(=O)c1ccccc1N2C", "≤ 50 nM"]
]}

Please find the next molecule below.
query: Requested field: IC50. Item: CCOc1cc(C(=O)N2CCN(c3cccnc3)CC2)ccc1Nc1cc2c(cn1)N(C)C(=O)c1occc1N2C
result: ≤ 50 nM

* * *

test.system: ERK5 (Homo sapiens)
Construct: screened for activity against several kinases in Jurkat cells; endogenous in cells; host or cells: Jurkat cell lysate
assay.method.text: Probe-based (AX9989 acyl phosphate ATP probe) kinase profiling in Jurkat lysate: ERK5
Type: binding
run.conditions: calculated from percent inhibition and screening concentration; Jurkat lysate, AX9989 probe
Answer each item with its documented IC50.

Consider the reported IC50 for these compounds:
{"columns": ["compound", "IC50"],
 "data": [
  ["CN1CCC(N2CCN(C(=O)c3ccc(Nc4cc5c(cn4)N(C)C(=O)c4ccccc4N5C)c(OC(F)F)c3)CC2)CC1", "≤ 50 nM"],
  ["CCOc1cc(C(=O)N2CCOCC2)ccc1Nc1cc2c(cn1)N(C)C(=O)c1ccccc1S2(=O)=O", "> 500 nM"],
  ["CCOc1cc(C(=O)N2CC[C@@H](N3CCN(C)CC3)C2)ccc1Nc1cc2c(cn1)N(C)C(=O)c1ccccc1N2C", "≤ 50 nM"],
  ["CCOc1cc(C(=O)N[C@H]2CC[C@H](O)CC2)ccc1Nc1cc2c(cn1)N(C)C(=O)c1ccccc1N2C", "101 to 500 nM"],
  ["CCOc1cc(C(=O)N2CCN(C(C)=O)CC2)ccc1Nc1cc2c(cn1)N(C)C(=O)c1ccccc1N2C1CC1", "≤ 50 nM"],
  ["CCOc1cc(C(=O)N2CCC(N3CCN(C)CC3)CC2)ccc1Nc1cc2c(cn1)N(C)C(C(F)(F)F)c1ccccc1N2C (stereo not drawn)", "> 500 nM"]
]}

Respectfully, I request IC50 for each entry included below.
1. CN1CCC(N2CCN(C(=O)c3ccc(Nc4cc5c(cn4)N(C)C(=O)c4ccccc4N5C)c(F)c3)CC2)CC1
2. CCOc1cc(C(=O)N[C@H]2CC[C@@H](O)CC2)ccc1Nc1cc2c(cn1)N(C)C(=O)c1ccccc1N2C
3. [2H]C([2H])([2H])N1C(=O)c2ccccc2N(C([2H])([2H])[2H])c2cc(Nc3ccc(C(=O)N4CCN(C(C)=O)CC4)cc3OCC)ncc21
4. CCOc1cc(C(=O)N2CCC(N3CC[C@@H](O)C3)CC2)ccc1Nc1cc2c(cn1)N(C)C(=O)c1ccccc1N2C
5. CCOc1cc(C(=O)N2CCC(N3CCCC3)CC2)ccc1Nc1cc2c(cn1)N(C)C(=O)N1C=CC=CC1=N2
6. CCOc1cc(C(=O)N2CCC(NCCF)C2)ccc1Nc1cc2c(cn1)N(C)C(C(F)(F)F)c1ccccc1N2C (stereo not drawn)
7. CCOc1cc(C(=O)N2CCN(CCN3CCOCC3)CC2)ccc1Nc1cc2c(cn1)N(C)C(=O)c1ccccc1N2C
8. CCOc1cc(C(=O)N2CC[C@@H](N3CCN(C)CC3)C2)ccc1Nc1cc2c(cn1)N(C)C(=O)c1ccccc1N2C1CC1

result:
["≤ 50 nM", "101 to 500 nM", "50 to 100 nM", "≤ 50 nM", "> 500 nM", "> 500 nM", "≤ 50 nM", "≤ 50 nM"]

query: Requested field: IC50. Item: CC(=O)N1CCN(C(=O)c2ccc(Nc3cc4c(cn3)N(C)C(=O)c3ccccc3N4C)c(F)c2)CC1
result: ≤ 50 nM

* * *

test.system: BRD4 bromodomain domain I [BRD4(1)] (Homo sapiens, UniProt O60885)
Construct: BRD4 bromodomain domain I [BRD4(1)]; purchased Cayman Chemicals
assay.method.text: BRD4 bromodomain domain 1 inhibition assay (TR-FRET)
Assay type: binding
run.conditions: screening concentration 10 μM
Answer each item with its documented inhibition at 10 µM.

{"columns": ["compound", "test.system", "value.observed"],
 "data": [
  ["CCOc1cc(C(=O)N2CCN[C@@H](C)C2)ccc1Nc1cc2c(cn1)N(C)C(=O)c1ccccc1N2C [Compound T25]", "BRD4 bromodomain domain I [BRD4(1)] (Homo sapiens, UniProt O60885)", "> 85%"],
  ["CCOc1cc(C(C)N2CC[C@@H](O)C2)ccc1Nc1cc2c(cn1)N(C)C(=O)c1ccccc1N2C (some centres unmarked) [Compound T27]", "BRD4 bromodomain domain I [BRD4(1)] (Homo sapiens, UniProt O60885)", "> 85%"],
  ["CCOc1cc(C(=O)N2CC[C@H](C#N)C2)ccc1Nc1cc2c(cn1)N(C)C(=O)c1ccccc1N2C [Compound T22]", "BRD4 bromodomain domain I [BRD4(1)] (Homo sapiens, UniProt O60885)", "< 70%"],
  ["CC(C)Oc1cc(C(=O)N2CC[C@@H](NCCF)C2)ccc1Nc1cc2c(cn1)N(C)C(=O)c1ccccc1N2C [Compound T50]", "BRD4 bromodomain domain I [BRD4(1)] (Homo sapiens, UniProt O60885)", "> 85%"],
  ["CCOc1cc(C(=O)N(C)CCn2ccnc2)ccc1Nc1cc2c(cn1)N(C)C(=O)c1ccccc1N2C [Compound 30]", "BRD4 bromodomain domain I [BRD4(1)] (Homo sapiens, UniProt O60885)", "70 to 85%"]
]}

Respectfully, I request inhibition at 10 µM for each entry included below.
1. CCOc1cc(C(=O)NC2CCC(O)CC2)ccc1Nc1cc2c(cn1)N(C)C(=O)c1ccccc1N2C (centres unmarked) [Compound 109]
2. CCOc1cc(C(=O)N(C)CCN(CC)CC)ccc1Nc1cc2c(cn1)N(C)C(=O)c1ccccc1N2C [Compound 42]
3. CCOc1cc(C(=O)N2CCCN(C)CC2)ccc1Nc1cc2c(cn1)N(C)C(=O)c1ccccc1N2C [Compound 8]
4. CCOc1cc(C(=O)N2CCN(C3CC3)CC2)ccc1Nc1cc2c(cn1)N(C)C(=O)c1ccccc1N2C [Compound 39]
5. CN1C(=O)c2ccccc2N(C)c2cc(N[C@H]3CC[C@H](NS(C)(=O)=O)CC3)ncc21 [Compound 99]
6. CC(=O)NC1CCC(Nc2cc3c(cn2)N(C)C(=O)c2ccccc2N3C)CC1 (centres unmarked) [Compound 98]
7. CCOc1cc(C(=O)N(C)[C@H]2CC[C@H](O)CC2)ccc1Nc1cc2c(cn1)N(C)C(=O)c1ccccc1N2C [Compound T64]

result:
["< 70%", "> 85%", "70 to 85%", "< 70%", "70 to 85%", "< 70%", "70 to 85%"]

Respectfully, I request inhibition at 10 µM for each entry included below.
1. CCOc1cc(C(C)N2CCCC2)ccc1Nc1cc2c(cn1)N(C)C(=O)c1ccccc1N2C (centres unmarked) [Compound T26]
2. CCOc1cc(C(=O)N2CCN(CCN(C)C)CC2)ccc1Nc1cc2c(cn1)N(C)C(=O)c1ccccc1N2C [Compound T14]

result:
1: > 85%; 2: > 85%
